Values compiled from patent US20260184782A1.

Target: T1, TIGIT (UniProt Q495A1 22-141, limits assumed)
T1 construct: construct not described; also called T cell immunoreceptor with Ig and ITIM domains
T1 sequence (looked up): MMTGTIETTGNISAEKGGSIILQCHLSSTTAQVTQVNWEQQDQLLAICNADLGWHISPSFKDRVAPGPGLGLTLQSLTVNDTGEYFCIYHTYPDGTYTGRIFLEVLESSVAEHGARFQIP
Test: SPR, VHH-V5-His; unit inferred
With a cut-off of 400 nM, any Kd strictly below it is called True; any Kd meeting it or above is called False.

TIGIT-30-49 VHH-V5-His (VHH, not shown: V5 and His tags) VHH: EVQLVESGGGLVQAGGSLRLSCAASGNIFSRYIMGWFRQAPGKEREWVAGISNGGTTKYADSVKGRFTISADNAKNTVYLQMNSLKPEDTAVYYCAQGWKIVPTNWGQGTQVTVSS : False
TIGIT-30-40 VHH-V5-His (VHH, not shown: V5 and His tags) VHH: EVQLVESGGGLVQAGGSLRLSCAASGFTFSGNWMGWFRQAPGKEREWVVGISSGGSTHYADSVKGRFTISADNAKNTVYLQMNSLKPEDTAVYYCAADVWYGSTWRNWGQGTQVTVSS : True
TIGIT-29-10 VHH-V5-His (VHH, not shown: V5 and His tags) VHH: EVQLVESGGGLVQAGGSLRLSCAASGRTFSNYGMGWFRQAPGKEREFVSGISGSGGRTSYADSVKGRFTISADNAKNTVYLQMNSLKPEDTAVYYCAANLWYPVDRLNTGFNYWGQGTQVTVSS : True

Just wondering, is Kd of TIGIT-29-18 VHH-V5-His (VHH, not shown: V5 and His tags) VHH: EVQLVESGGGLVQAGGSLRLSCAASGSTFSNYAMGWFRQAPGKEREFVSAINSSGSRTYYADSVKGRFTISADNAKNTVYLQMNSLKPEDTAVYYCAARLWGTWTAGDYDYWGQGTQVTVSS below 400 nM?
True

Just wondering, is Kd of TIGIT-30-20 VHH-V5-His (VHH, not shown: V5 and His tags) VHH: EVQLVESGGGLVQAGGSLRLSCAASGPTFSIYDMGWFRQAPGKEREFVAVINWSRGSTFYADSVKGRFTISADNAKNTVYLQMNSLKPEDTAVYYCAAGVWSSLRHTAANWGQGTQVTVSS below 400 nM?
True

Just wondering, is Kd of TIGIT-29-30 VHH-V5-His (VHH, not shown: V5 and His tags) VHH: EVQLVESGGGLVQAGGSLRLSCAASGFTFSSYAMGWFRQAPGKEREFVAAITWSGTRTDYADSVKGRFTISADNAKNTVYLQMNSLKPEDTAVYYCAAAAWRYSEYDYWGQGTQVTVSS below 400 nM?
True

Just wondering, is Kd of TIGIT-29-34 VHH-V5-His (VHH, not shown: V5 and His tags) VHH: EVQLVESGGGLVQAGGSLRLSCAASGFTFRNYAMGWFRQAPGKEREFVSSISSSSSRTSYADSVKGRFTISADNAKNTVYLQMNSLKPEDTAVYYCAARLWGTWTAGDYDYWGQGTQVTVSS below 400 nM?
False

Just wondering, is Kd of TIGIT-29-07 VHH-V5-His (VHH, not shown: V5 and His tags) VHH: EVQLVESGGGLVQAGGSLRLSCAASGSIFSNYAMGWFRQAPGKEREFVATISRGGTRTNYADSVKGRFTISADNAKNTVYLQMNSLKPEDTAVYYCAAAAWTIYAYNYWGQGTQVTVSS below 400 nM?
False
